Tested on: velvetleaf (Abutilon theophrasti)
Assay: Test G Post-Emergence Protocol
Format: in vivo
Details: Abutilon theophrasti, post-emergence, 312 h, 15.625 g ai/ha, evaluated after 13 days (100=total damage to plant; 0=no damage to plant), read-out: Velvetleaf damage rating
Would you mind telling me the reported pest or weed control at 15.625 g/ha of each entry?
One number for each entry, in %.

[[record]]
compound = "CN1C[C@H](c2ccc(F)c(C#N)c2)[C@@H](C(=O)Nc2ccccc2F)C1=O (racemic)"
measured_parameter = "pest or weed control at 15.625 g/ha"
units_label = "%"
measured = 0

[[record]]
compound = "CN1C[C@H](c2ccc(C(F)F)cc2)[C@@H](C(=O)Nc2ccccc2F)C1=O (racemic)"
measured_parameter = "pest or weed control at 15.625 g/ha"
units_label = "%"
measured = 0


Please examine the following record next.
// query Field: pest or weed control at 15.625 g/ha (velvetleaf (Abutilon theophrasti)). Entry: Cc1c(F)cccc1NC(=O)[C@@H]1C(=O)N(C)C[C@H]1c1cccc(C(C)(C)F)c1 (racemic)
// result 0
